Attribution: patent EP4810483A1

experimental_system: CYP2C19 (Homo sapiens, UniProt P33261)
Sequence (P33261 whole entry): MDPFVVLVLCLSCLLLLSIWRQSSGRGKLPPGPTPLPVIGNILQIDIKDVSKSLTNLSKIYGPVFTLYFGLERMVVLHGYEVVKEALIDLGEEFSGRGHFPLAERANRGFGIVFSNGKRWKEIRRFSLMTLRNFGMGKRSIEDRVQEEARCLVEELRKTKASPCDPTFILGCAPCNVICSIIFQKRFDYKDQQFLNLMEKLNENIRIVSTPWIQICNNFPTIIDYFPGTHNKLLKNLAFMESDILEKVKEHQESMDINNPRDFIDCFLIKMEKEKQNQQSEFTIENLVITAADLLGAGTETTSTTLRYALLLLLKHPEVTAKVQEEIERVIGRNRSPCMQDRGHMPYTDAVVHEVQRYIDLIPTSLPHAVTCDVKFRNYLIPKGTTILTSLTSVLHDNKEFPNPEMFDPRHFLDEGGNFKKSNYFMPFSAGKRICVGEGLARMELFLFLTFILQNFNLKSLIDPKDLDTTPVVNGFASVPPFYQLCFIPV
experiment_summary: Drug-drug interaction evaluation: CYP inhibition in human liver microsomes (cocktail method)
Kindly supply the reported IC50 values for the records listed here.
Please reply with the bare figure in µM and do not write the unit itself.

Query block: Need IC50 of Cc1c(NC(=O)CC(C)(C)C)n(C)c2cc(Nc3ncc(F)cc3F)ccc12 [Compound 26] , thanks.
Result block: 44

Query block: Need IC50 of Cc1c(NC(=O)CC2(C)CC2)n(C)c2cc(Nc3ccc(F)cc3)ccc12 [Compound 12] , thanks.
Result block: 13

====

Kindly supply the reported IC50 values for the records listed here.
experimental_system: CYP1A2 (Homo sapiens, UniProt P05177)
Sequence (P05177 whole entry): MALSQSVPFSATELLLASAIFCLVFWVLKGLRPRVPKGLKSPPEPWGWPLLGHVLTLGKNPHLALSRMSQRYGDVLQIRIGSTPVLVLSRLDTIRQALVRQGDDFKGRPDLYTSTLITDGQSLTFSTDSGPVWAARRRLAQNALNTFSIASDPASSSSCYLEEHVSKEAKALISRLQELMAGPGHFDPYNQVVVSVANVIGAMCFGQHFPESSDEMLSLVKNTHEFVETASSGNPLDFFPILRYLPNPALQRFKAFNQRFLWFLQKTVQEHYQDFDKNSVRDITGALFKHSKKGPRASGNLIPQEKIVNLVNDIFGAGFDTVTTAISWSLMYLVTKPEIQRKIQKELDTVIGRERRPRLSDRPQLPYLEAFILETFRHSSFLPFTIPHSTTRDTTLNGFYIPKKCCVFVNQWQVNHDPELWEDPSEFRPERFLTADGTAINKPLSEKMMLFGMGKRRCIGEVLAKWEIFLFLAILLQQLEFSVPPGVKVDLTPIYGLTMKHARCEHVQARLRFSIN
experiment_summary: Drug-drug interaction evaluation: CYP inhibition in human liver microsomes (cocktail method)
Please reply with the bare figure in µM and do not write the unit itself.

Query block: Request - read-out IC50 | tested on CYP1A2 (Homo sapiens, UniProt P05177) | molecule Cc1c(NC(=O)CC(C)(C)C)n(C)c2cc(Nc3ncc(F)cc3F)ccc12
Result block: 19

Query block: Request - read-out IC50 | tested on CYP1A2 (Homo sapiens, UniProt P05177) | molecule Cc1nc(Nc2ccc3c(C)c(NC(=O)CC(C)(C)C)n(C)c3c2)ccc1F
Result block: 11

Query block: Request - read-out IC50 | tested on CYP1A2 (Homo sapiens, UniProt P05177) | molecule Cc1c(NC(=O)CC2(C)CC2)n(C)c2cc(Nc3ccc(F)cc3)ccc12
Result block: 20

====

experiment_summary: Pharmacokinetic evaluation in mice (IV and PO)
Assay type: in vivo
condition_context: mouse, plasma; CD-1 mice; dose IV:0.5, PO:2 mg/kg; read-out: Volume of distribution Vdss
measurement_name: Vd (L/kg)
Please reply with the bare figure in L/kg and do not write the unit itself.

Query block: Need Vd of Cc1c(NC(=O)CC(C)(C)C)n(C)c2cc(Nc3ccc(F)cn3)ccc12 , thanks.
Result block: 2

Query block: Need Vd of Cc1c(NC(=O)CC(C)(C)C)n(C)c2cc(Nc3ccc(C(F)(F)F)cc3)ccc12 , thanks.
Result block: 3.97

Query block: Need Vd of CC(C)(C)CC(=O)Nc1nc2c(F)cc(Nc3ccc(F)cc3)cc2n1C1CCC1 , thanks.
Result block: 2.14

Query block: Need Vd of Cc1c(NC(=O)CC(C)(C)C)n(C)c2cc(Nc3ccc(F)cc3)ccc12 , thanks.
Result block: 5.16

====

experiment_summary: Pharmacokinetic evaluation in mice (IV and PO)
Assay type: in vivo
condition_context: mouse, plasma; CD-1 mice; dose IV:1, PO:5 mg/kg; read-out: Volume of distribution Vdss
Method: Test Method 2: Pharmacokinetic Evaluation in Mice Assay method: Test compounds were mixed with 5% DMSO / 60% polyethylene glycol (PEG400) / 35% water, vortexed and sonicated to obtain a clear 0.2 mg/mL solution, which was then filtered through a microporous membrane before use. […] The content of the target compound in plasma samples was determined by LC/MS/MS method, and pharmacokinetic parameters were calculated using Phoenix WinNonlin software (Pharsight, USA). […]
measurement_name: Vd (L/kg)
Please reply with the bare figure in L/kg and do not write the unit itself.

Query block: Need Vd of Cc1c(NC(=O)CC(C)(C)C)n(C)c2cc(Nc3ccc(F)cc3)ccc12 , thanks.
Result block: 5.06

Query block: Need Vd of Cc1nc(Nc2ccc3c(C)c(NC(=O)CC(C)(C)C)n(C)c3c2)ccc1F , thanks.
Result block: 0.6

Query block: Need Vd of Cc1nc(Nc2ccc3c(C)c(NC(=O)CC4(C)CC4)n(C)c3c2)ccc1F , thanks.
Result block: 0.8
